Assay: Restrictive medium S. cerevisiae growth inhibition, OD615, pilot screen of yeast lifespan reduction project, restrictive growth control (AID 706);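 also: modified DeaD lifespan yeast strain shifted to restrictive glucose medium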
Settings: OD615, 48 h, at 10 µM, active compounds read high
Activity calls are given as the source filed them.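 The calls were made as follows: active = growth inhibition above a set limit, 3 SD over mean compound inhibition, in both replicates (cut at about 43% in these data); inconclusive = above the limit in only one replicate; inactive = at or below the limit in both replicates.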
Record form. Attribute: growth inhibition. Fill in for each entry.

Value of measured growth inhibition for the entry COc1ccc(OC)c(C2=Nn3c(nnc3-c3ccncc3)SC2)c1 : 11.2% (inactive)

Consider O=C(Cn1nc(-c2ccc(Cl)cc2)ccc1=O)NCC1CCCO1 (configuration not stated) . Its measured growth inhibition is -10.1% (inactive)

Lab note: COc1ccccc1NC(=O)C1=C(C)NC(=O)NC1c1ccc(C)cc1 (configuration not stated) gave growth inhibition of -13.7% (inactive)

Data point: COC(=O)C1(C)Nc2ccccc2C(=O)N1c1ccccc1OC (configuration not stated) ; growth inhibition = -23.6% (inactive)

The value of growth inhibition measured for the compound COc1cc(NC(=O)COc2ccc(F)cc2)nc(OC)n1 turned out to be 11.7% (inactive)

growth inhibition reading for COc1ccccc1-c1nnc(NC(=O)c2ccccc2F)o1 : -17.1% (inactive)

// growth inhibition lookup, compound = O=C1CNC(=O)/C1=C\N1CCN(C(c2ccccc2)c2ccccc2)CC1 , result: 9.98% (inactive)

Reported growth inhibition of CCOC(=O)N1CCN(c2cc(C)nc3nc(C)nn23)CC1 : -9.88% (inactive)

growth inhibition measured on COc1ccc(NC(=O)C2c3cc(OC)c(OC)cc3C(=O)N(C)C2c2cccnc2)cc1OC (configuration not stated) = -0.86% (inactive)

So for CN(C(=O)c1cnc2n(c1=O)CCS2)C1CCCCC1 , the logged growth inhibition turned out to be -5.85% (inactive)

Memo: COc1ccc(C(C)(C)C)cc1NC(=O)COC(=O)c1cnc(C)cn1 , reported growth inhibition: -5.05% (inactive)

Lab book: growth inhibition of CC(=O)c1cccc(NC(=O)c2c(F)c(F)c(F)c(F)c2F)c1 noted as 6.79% (inactive)

Sure, the documented growth inhibition for CC1CCc2nn(CC(=O)N3CCCCCC3)cc2C1 (configuration not stated) is 1.8% (inactive)

growth inhibition reported for this compound COC(=O)c1c(-c2ccc(C)cc2)csc1N : 0.135% (inactive)

So, Cc1ccccc1-n1c(C)nc2ccccc21 ? Its growth inhibition was -1.88% (inactive)

Recorded growth inhibition (compound CCOC(=O)c1nn(-c2ccc3c(c2)CCN3C(C)=O)cc1O ): -5.95% (inactive)

Briefly, growth inhibition measured for COc1ccc(-c2[nH]ncc2-c2cnc(C)s2)c(O)c1 : -13% (inactive)

Please fill in: growth inhibition reported for O=C(Cn1nc(-c2ccccc2)ccc1=O)N1CCOCC1 = 8.44% (inactive)

Noted for COc1ccc(-c2nnc(SCC(=O)NC(C)c3ccccc3)o2)cc1OC (configuration not stated) : its growth inhibition reads -14.2% (inactive)

growth inhibition for NC(=O)CSc1ncc(-c2ccccc2)[nH]1 is -3.75% (inactive)

growth inhibition recorded for this compound, CCOC(=O)c1[nH]c(=O)[nH]c1CSc1nc(C)cc(C)n1 , is 7.25% (inactive)

# growth inhibition of CCCCNC(=O)Nc1ccc(Br)cn1 = 4.73% (inactive)

Record O=C1C2C3c4ccccc4C(c4ccccc43)C2C(=O)N1Cc1ccco1 (configuration not stated) . Reported growth inhibition: 5.63% (inactive)

So, Cn1c(=O)oc2cc(S(=O)(=O)N3CCc4ccccc4C3)ccc21 ? Its growth inhibition was -5.15% (inactive)

For record CCSC1=C(C#N)C(c2ccc(C)s2)CC(=O)N1 (configuration not stated) the listed growth inhibition is -6.45% (inactive)

Measured growth inhibition, C=CCn1c(NCc2cc(C)ccc2O)nc2ccccc21 : -17.9% (inactive)

growth inhibition measured on Cc1ccc2oc(=O)c3cnn(CC(=O)N4CCCCCC4)c3c2c1 = -0.055% (inactive)

Looking up Cn1nc(-c2ccc(Cl)cc2)c2cc(C(=O)N3CCN(C(=O)c4ccco4)CC3)sc21 , I see its growth inhibition listed as 15.6% (inactive)

response.value for CC(C)(C)c1nc(CN2CCCCC2)cc(CN2CCCCC2)c1O (field: growth inhibition) = -12.6% (inactive)

# growth inhibition of COC(=O)c1ccc(N2CCOCC2)c(NC(=O)Nc2cccc(OC)c2)c1 = -8.03% (inactive)

growth inhibition recorded for this compound, CN(C)C(=O)N1CCC(C(=O)NCc2ccc(F)cc2)CC1 , is 9.94% (inactive)

O=C(CNC(=O)c1ccccc1F)NC1CC1 has a reported growth inhibition of -2.84% (inactive)

Value of growth inhibition reported for the compound COc1nc(Nc2ccc(C(C)=O)cc2)nc(OC)n1 is -4.17% (inactive)

Lab book: growth inhibition of O=C(CCNS(=O)(=O)c1cccc2nsnc12)NC1CCCc2ccccc21 (configuration not stated) noted as -13.1% (inactive)

# growth inhibition (compound: COc1ccc(Nc2cc(C)nc3nc(C)nn23)c(OC)c1 ) is 4.67% (inactive)

The compound identified as C=CCSc1nc2c(c(=O)[nH]c(=O)n2C)n1Cc1ccc(C)cc1 registered its growth inhibition at -7.22% (inactive)

Kindly note the recorded growth inhibition for CCn1c(SCC(=O)N2CCN(c3ccccc3)CC2)nc2c(c1=O)SC(C)C2 (configuration not stated) , which is -10.2% (inactive)

Documented growth inhibition of COc1ccc2nc(NC(=O)C3CCCN3S(=O)(=O)c3ccc(C)cc3)sc2c1 (configuration not stated) : -4% (inactive)

Value of growth inhibition reported for the compound CCOC(=O)c1cccc(NC(=O)C2CCC(CNc3c(N4CCOCC4)c(=O)c3=O)CC2)c1 (configuration not stated) is -13.8% (inactive)

Kindly note the recorded growth inhibition for CC(=O)Oc1c2occc2cc2ccc(=O)oc12 , which is -1.74% (inactive)

What the record says about CCOC(=O)C1CCCN(c2cc(=O)n(-c3ccccc3Cl)c(=O)[nH]2)C1 (configuration not stated) : growth inhibition is -18.9% (inactive)

Sure, the documented growth inhibition for CC1(C)C(c2ccc(Cl)cc2)=[N+]([O-])C2(CCCC/C2=N\O)N1O (configuration not stated) is -4.64% (inactive)

Entry under test: CCOc1ccc(N(C(C)C(=O)Nc2ccc(OC)cc2)S(C)(=O)=O)cc1 (configuration not stated) . Its growth inhibition was -1.65% (inactive)

# compound CCOc1ccc(C(=O)CCNC(Cc2cnc[nH]2)C(=O)O)cc1 (configuration not stated) ; its growth inhibition = 8.23% (inactive)

In plain terms, COc1ccccc1OCC(=O)NC1CCCCCC1 has a documented growth inhibition of -8.23% (inactive)

Form: compound = CN(CCNC(=O)C1CC(=O)N(C2CCCC2)C1)Cc1ccccc1 (configuration not stated) ; growth inhibition = 0.485% (inactive)

Briefly, growth inhibition measured for O=C(Sc1nnc(-c2ccccc2)o1)N1c2ccccc2Sc2ccccc21 : 21.9% (inactive)
